experiment: General; assay type: cell-based; details: African green monkey, Vero cells (monkey kidney epithelial cells)

[
  {
    "compound": "Cc1ccc(Cn2cc(/C=N/N3C(=O)CSC3=S)c3cc([N+](=O)[O-])ccc32)cc1",
    "readingUnit": "µM",
    "relationQualifier": ">",
    "IC50": 100
  },
  {
    "compound": "C#CCn1cc(/C=C2\\SC(=S)NC2=O)c2cc([N+](=O)[O-])ccc21",
    "readingUnit": "µM",
    "relationQualifier": "=",
    "IC50": 13.5
  },
  {
    "compound": "O=Cc1cn(Cc2ccc(F)cc2)c2ccc([N+](=O)[O-])cc12",
    "readingUnit": "µM",
    "relationQualifier": ">",
    "IC50": 100
  },
  {
    "compound": "O=C1CSC(=S)N1/N=C/c1cn(Cc2cccc(Cl)c2)c2ccc([N+](=O)[O-])cc12",
    "readingUnit": "µM",
    "relationQualifier": "=",
    "IC50": 58.8
  },
  {
    "compound": "O=Cc1c[nH]c2ccc([N+](=O)[O-])cc12",
    "readingUnit": "µM",
    "relationQualifier": ">",
    "IC50": 100
  },
  {
    "compound": "O=Cc1cn(Cc2cccc(Cl)c2)c2ccc([N+](=O)[O-])cc12",
    "readingUnit": "µM",
    "relationQualifier": "=",
    "IC50": 99.9
  },
  {
    "compound": "O=C1CSC(=S)N1/N=C/c1cn(Cc2ccc(F)cc2)c2ccc([N+](=O)[O-])cc12",
    "readingUnit": "µM",
    "relationQualifier": ">",
    "IC50": 100
  },
  {
    "compound": "O=[N+]([O-])c1ccc2[nH]ccc2c1",
    "readingUnit": "µM",
    "relationQualifier": "=",
    "IC50": 79.5
  },
  {
    "compound": "O=Cc1cn(Cc2ccccc2)c2ccc([N+](=O)[O-])cc12",
    "readingUnit": "µM",
    "relationQualifier": ">",
    "IC50": 100
  },
  {
    "compound": "Cc1ccc(Cn2cc(C=O)c3cc([N+](=O)[O-])ccc32)cc1",
    "readingUnit": "µM",
    "relationQualifier": "=",
    "IC50": 96.9
  },
  {
    "compound": "O=C1CSC(=S)N1/N=C/c1c[nH]c2ccc([N+](=O)[O-])cc12",
    "readingUnit": "µM",
    "relationQualifier": ">",
    "IC50": 100
  },
  {
    "compound": "C#CCn1cc(C=O)c2cc([N+](=O)[O-])ccc21",
    "readingUnit": "µM",
    "relationQualifier": ">",
    "IC50": 100
  },
  {
    "compound": "CC[C@H]1CN2CCc3cc(OC)c(OC)cc3[C@@H]2C[C@@H]1C[C@H]1NCCc2cc(OC)c(OC)cc21 [Em, emetine, reference compound]",
    "readingUnit": "µM",
    "relationQualifier": "=",
    "IC50": 0.09
  },
  {
    "compound": "O=C1NC(=S)S/C1=C\\c1c[nH]c2ccc([N+](=O)[O-])cc12",
    "readingUnit": "µM",
    "relationQualifier": "=",
    "IC50": 15.2
  },
  {
    "compound": "O=C1CSC(=S)N1/N=C/c1cn(Cc2ccccc2)c2ccc([N+](=O)[O-])cc12",
    "readingUnit": "µM",
    "relationQualifier": ">",
    "IC50": 100
  },
  {
    "compound": "C#CCn1cc(/C=N/N2C(=O)CSC2=S)c2cc([N+](=O)[O-])ccc21",
    "readingUnit": "µM",
    "relationQualifier": ">",
    "IC50": 100
  }
]

---

tested on: MDBK cells; assay: Animal cytotoxicity, CCK-8 assay; format: cell-based, bovine; settings: read-out: Cytotoxicity IC50 ± SD MDBK; MDBK cells; three biological replicates

[
  {
    "compound": "CC(=O)NCC(=O)O.CC(=O)NCC(=O)O.N=C(N)c1ccc(N=NNc2ccc(C(=N)N)cc2)cc1 [Diminazine aceturate, diminazene aceturate, reference compound]",
    "target": "MDBK cells",
    "IC50": "> 355 µM"
  }
]

---

Items are presented alongside their recorded pIC50.
test: Animal cytotoxicity, CCK-8 assay; assay type: cell-based, bovine; settings: bovine, MDBK (Madin-Darby bovine kidney) cells
pIC50: −log10 of the molar value.
measurementLabel: pIC50

[
  {
    "compound": "C#CCn1cc(C=O)c2cc([N+](=O)[O-])ccc21",
    "endpointValue": "< 3.36"
  },
  {
    "compound": "O=Cc1cn(Cc2ccccc2)c2ccc([N+](=O)[O-])cc12",
    "endpointValue": "< 3.45"
  },
  {
    "compound": "C#CCn1cc(/C=C2\\SC(=S)NC2=O)c2cc([N+](=O)[O-])ccc21",
    "endpointValue": "< 3.51"
  },
  {
    "compound": "O=Cc1c[nH]c2ccc([N+](=O)[O-])cc12",
    "endpointValue": "< 3.28"
  },
  {
    "compound": "Cc1ccc(C(=O)Nc2ccc(S(=O)(=O)O)c3cc(S(=O)(=O)O)cc(S(=O)(=O)O)c23)cc1NC(=O)c1cccc(NC(=O)Nc2cccc(C(=O)Nc3cc(C(=O)Nc4ccc(S(=O)(=O)O)c5cc(S(=O)(=O)O)cc(S(=O)(=O)O)c45)ccc3C)c2)c1 [Suramin, suramin, reference compound]",
    "endpointValue": "< 4.15"
  },
  {
    "compound": "O=Cc1cn(Cc2ccc(F)cc2)c2ccc([N+](=O)[O-])cc12",
    "endpointValue": "< 3.47"
  }
]

These measurements were taken from paper PMC11901381.
